// data source = a melting point compilation (Tetko et al.; mined from patent text by program, amines drawn as free bases though some values may be those of a salt)

property-label: melting point

INSERT INTO measurements (molecule, result) VALUES
  ('OC(c1ccccc1)(c1ccc(Oc2ccccc2)cc1)c1ccccn1 (centres undefined)', '114 °C'),
  ('CCS(=O)(=O)N(C(C)=O)c1cc(-n2nc3ccc(Cl)cn3c2=O)c(F)cc1C#N', '220 to 222 °C'),
  ('Nc1nc2cc(-c3ccccc3)ccc2c2c1ncn2CCCN1CCCC1=O', '201 to 204 °C'),
  ('COc1cc2c(cc1OC)CN(CC(O)c1ccc([N+](=O)[O-])cc1)CC2 (centres undefined)', '130 °C'),
  ('Nc1ccc2c(c1)SN(CCCCN1CCN(c3ncccn3)CC1)C2', '150 to 151 °C'),
  ('C1=C(c2ccccc2)CC(CN2CCN(c3ccccn3)CC2)C1 (centres undefined)', '100 to 101 °C'),
  ('CC(=O)OC1CSC(Oc2cccnc2-c2cncnc2)C(OC(C)=O)C1OC(C)=O (centres undefined)', '205 °C'),
  ('CC(C)c1nn(-c2ccc(C(F)(F)F)cn2)cc1CCCOc1c(F)cccc1CC(=O)O', '140 to 141 °C'),
  ('CC(C)OC(=O)C(C)(C)c1cn2nc(Cl)ccc2n1', '100 to 101 °C');

###

property-label: melting point

INSERT INTO results (molecule, result) VALUES
  ('Cc1nc(-c2ccc(C#N)cc2)sc1C(=O)N[C@H](C)[C@](O)(Cn1cncn1)c1ccc(F)cc1F', '109 to 111 °C'),
  ('CCOC(=O)/C=C/c1cnc(-c2ccc(O)c(C34CC5CC(CC(C5)C3)C4)c2)nc1', '226 to 228 °C'),
  ('CCCCCCCCCC(C)(C)c1cc(C(=O)Sc2ccc(C(=O)O)cc2)ccc1OC', '186 to 187 °C'),
  ('CC(C)OC(=O)Cn1c(=O)n(C)c(=O)n(-c2cc(N3C(=O)C4CS(=O)CCN4C3=O)c(F)cc2Cl)c1=O (stereo not given)', '175 to 180 °C'),
  ('CCOC(=O)N1CCC(=C2c3ccccc3CCn3ncnc32)CC1', '106 °C'),
  ('COC(=O)C(C)(C)OCc1cc2nc(Cl)ccc2n1S(=O)(=O)c1cccc2ccccc12', '108 °C'),
  ('C#CCOc1ccc(OCC2OC2(C)C)cc1 (stereo not given)', '72 to 73 °C'),
  ('CC(C)c1cc2c(=O)n3cc(C(N)=O)ccc3nc2s1', '280 to 282 °C'),
  ('CCOP(=O)(CC(=O)N1c2ccccc2NC(=O)c2ccccc21)OCC', '195 to 197 °C'),
  ('COc1c(Br)c(-c2ccc(C(C)(C)C)s2)cc2oc(=O)c(C)c(C)c12', '170 °C'),
  ('FC(F)(F)CC1(CC2(CC(F)(F)F)N=c3cc(Cl)c(Cl)cc3=N2)N=c2cc(Cl)c(Cl)cc2=N1', '235 to 237 °C'),
  ('CCOc1ccc2c(c1)C(=O)N(c1ccc3sccc3c1)C2', '127 to 129 °C'),
  ('CN(C)c1noc(-c2cc(C(C)(C)C)c(O)c(C(C)(C)C)c2)n1', '135 to 138 °C'),
  ('CON=Cc1cc(NC(=O)N2CCOCN2)c(F)cc1Cl', '169 to 171 °C'),
  ('Cc1cccc2c1nc(-c1ccccc1Cl)n2CC(C)O (stereo not given)', '164 to 165 °C'),
  ('O=C1C2=C(CCCC2)C(=O)N1c1cc(O)ccc1F', '165 °C'),
  ('CON1CCC2(CC1)C(O)=C(c1c(C)cc(C)cc1C)C(=O)N2O', '152 to 154 °C'),
  ('COC(=O)CCc1cc2ccc(C(F)(F)F)cc2[nH]1', '108 to 110 °C'),
  ('FC(F)(F)c1ccccc1-c1ccnc2ncnn12', '149 to 151 °C'),
  ('COC(=O)c1cc(OC)c(C#N)c(OC)c1', '151 to 153 °C');

###

property-label: melting point

INSERT INTO measurements (compound, result) VALUES
  ('CC(C)ON=C(C(=O)O)c1ccccc1', '59.5 °C'),
  ('NC(=O)c1cc(O)c(O)c([N+](=O)[O-])c1', '235 to 236 °C'),
  ('Cc1sc2c(Cl)c(Cl)c(OCC(=O)O)cc2c1C', '218 to 219 °C'),
  ('N#CCCN1CCC(c2noc3cc(F)ccc23)CC1', '100 to 101 °C'),
  ('CCCCOC(=O)Cc1nc(-c2ccccc2)oc1-c1ccsc1', '71 to 72 °C'),
  ('CC1CC(O)=NN1c1ccc(Cl)c(Cl)c1 (stereo unspecified)', '208 to 211 °C'),
  ('CNC(=S)Nc1ccccc1CC(=O)OC', '99 to 100 °C'),
  ('COc1ccc2nc(COc3ccc(CC(SC(C)=O)C(=O)O)cc3)n(C)c2c1 (stereo unspecified)', '209 to 214 °C'),
  ('CNC(=O)C1=C(C)OC(C)=C(C(=O)NC)C1c1ccc(Cl)cc1', '256 to 259 °C'),
  ('Cc1ccc(C2CC(=O)c3c(C)coc3C2)cc1 (stereo unspecified)', '113 to 114 °C'),
  ('Cc1nc(-c2ccc(C#N)cc2)sc1C(=O)N[C@H](C)[C@](O)(Cn1cncn1)c1ccc(Cl)cc1Cl', '109 to 113 °C');

###

Measured melting point values are reported for all entries that follow.
property-label: melting point

INSERT INTO measurements (compound, result) VALUES
  ('Cc1cc(-n2ccnc2)c2cccc(OCc3c(Cl)ccc(S(=O)(=O)N4CCC[C@H]4C(=O)NCC4CCN(Cc5ccccn5)CC4)c3Cl)c2n1', '100 °C'),
  ('CON=C(C)c1ccc(C(=O)Nc2ccc(C(C)(C)C)cc2)cc1', '154 to 155 °C'),
  ('COc1ccc(C)cc1NC(=O)Nc1ccc(C2=CCN(C(=O)Nc3ccc(OCC(O)CO)cc3C(F)(F)F)CC2)cc1 (stereo not given)', '135 to 137 °C'),
  ('CCN(CC)c1ccc(C2(c3c(C)n(CC)c4ccccc34)OC(=O)c3ccccc32)c(N(CC)CC)c1 (stereo not given)', '139 to 140 °C'),
  ('Cc1c(Nc2c(C#N)cnc3sc(C4=CCN(S(C)(=O)=O)CC4)cc23)ccc2[nH]ccc12', '228 °C'),
  ('O=c1[nH]c2cc(O)ccc2c2oc3ccccc3c12', '> 300 °C'),
  ('O=C(NNc1ccc([N+](=O)[O-])cc1)c1ccc(Cl)cc1', '246 to 248 °C'),
  ('CCCNC(=O)N1CCc2cc(S(=O)(=O)N3CC(c4ccccc4)NC3=O)ccc21 (stereo not given)', '197 to 199 °C'),
  ('Oc1cc(Cl)ccc1Oc1cccc(Br)c1', '63 to 65 °C'),
  ('CC(C)(O)CCCCCc1ccc(CCc2ccc(O)c(CO)c2)cc1', '110 to 111 °C'),
  ('Cc1ccc([N+](=O)[O-])cc1Nc1cccc(Br)c1', '114 to 116 °C'),
  ('O=C(Cc1ccc(Cl)cc1Cl)Nc1ccccc1', '146 °C'),
  ('CCOC(=O)C(C#N)=Cc1ccc(NC(=O)CC[Si](C)(C)C)cc1', '157 °C'),
  ('O=C(CCCc1cccnc1)N1CCC(CC(c2ccc(F)cc2)c2ccc(F)cc2)CC1', '108 to 110 °C'),
  ('Cc1ccc(C2c3[nH]c4ccccc4c3CCN2C(=O)C=Cc2cc([N+](=O)[O-])ccc2Cl)cc1 (stereo not given)', '211 to 213 °C'),
  ('COc1cc(C)c(O)c(C(=O)NCCc2ccc(N=C(N)c3cccs3)cc2)c1', '175 to 176 °C'),
  ('Cc1c(O)ccc(NC2=CC(=O)C(N)=CC2=O)c1C', '320 °C'),
  ('COc1ccc(Cc2cc(C3CCN(C(=O)Nc4ccccc4)CC3)nc(N)n2)cc1', '178 to 180 °C'),
  ('COc1ccc(CBr)c(CBr)c1', '48 to 50 °C'),
  ('Cn1nc(-c2ccc3cc(O)ccc3c2)c2ccc(O)cc21', '290 to 292 °C');

###

property-label: melting point

INSERT INTO assay_data (compound, property_label, result) VALUES
  ('Cc1c[nH]c(=O)c2ccccc12', 'melting point', '175 to 176 °C'),
  ('O=C1C2=NCC3(CCCC3)CN2c2ccc(S(=O)(=O)N3CCCC3CN3CCOCC3)cc21 (stereo not given)', 'melting point', '163 to 164 °C'),
  ('CCOC(=O)N=C1N(c2c(C)cccc2C)CC(C)N1c1c(C)cccc1C (stereo not given)', 'melting point', '124 to 125 °C'),
  ('O=C(OCc1ccccc1)N1CCC2(CC1)CC(=O)N(OC[N+](=O)[O-])C2=O', 'melting point', '137 to 139 °C'),
  ('COc1cc2ncnc(Nc3ccc(F)c(Cl)c3)c2cc1OCCN1CC(=O)O[C@@H](C)C1', 'melting point', '212 to 213 °C');
